study-system: recombinant human PAI-1 (Homo sapiens, UniProt P05121)
Sequence (P05121 24-402): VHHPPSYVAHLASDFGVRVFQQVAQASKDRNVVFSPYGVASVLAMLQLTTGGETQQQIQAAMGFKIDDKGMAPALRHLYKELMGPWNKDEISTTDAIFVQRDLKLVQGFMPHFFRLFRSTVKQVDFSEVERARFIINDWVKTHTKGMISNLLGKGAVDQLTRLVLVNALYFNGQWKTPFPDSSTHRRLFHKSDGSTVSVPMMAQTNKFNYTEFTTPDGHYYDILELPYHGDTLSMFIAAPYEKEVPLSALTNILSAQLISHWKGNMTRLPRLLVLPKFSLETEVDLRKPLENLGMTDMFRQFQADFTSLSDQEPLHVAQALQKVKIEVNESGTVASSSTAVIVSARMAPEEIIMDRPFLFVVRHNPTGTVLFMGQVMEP
assay-method-text: Test Example 2: Human PAI-1 Inhibitory Activity (pH 7.4 HEPES buffer, 10 minutes incubation with two-chain tPA)
Assay type: biochemical
Design: purchased Molecular Innovations, Inc
stated-conditions: read-out: Inhibition Rate of PAI-1 Activity (%)
measurement-type: inhibition at 3 µM (%)
Write it as a number; the unit % goes unstated.

>>> print(df.to_string())
                                   compound  result_unit  meas_value
0  O=C(O)CCCCCCCCOc1ccc(-c2ccc(OC(F)(F)F)cc2)cc1N(CCCCc1ccccc1)C(=O)C(=O)O [Compound 646]            %          86
1  CCCCCOc1ccc(-c2ccc(C(C)C)cc2)cc1N(CCCCc1ccccc1)C(=O)C(=O)O [Compound 678]            %          94

Now take the following compound into account.
What is its inhibition at 3 µM for recombinant human PAI-1 (Homo sapiens, UniProt P05121)? Entry: CCCCC(Oc1cc(-c2ccc(OC(F)(F)F)cc2)ccc1OCCCCc1ccc(Cl)cc1)C(=O)O (stereo not shown) [Compound 325]
91

---

study-system: recombinant human PAI-1 (Homo sapiens)
assay-method-text: biochemical
stated-conditions: read-out: Inhibition Rate of PAI-1 Activity (%)
Classification field: enter MET for inhibition at 10 µM values not below 80%, NOT MET for values below it.

Use these answered entries as a reference point.
In [3]: df
Out[3]:
                                   compound  category
0  CCCCCN(C(=O)C(=O)O)c1ccc(-c2ccc(OC(F)(F)F)cc2)cc1 [Compound 254]   NOT MET
1  Cc1ccc(N(Cc2ccc(C(C)(C)C)cc2)C(=O)C(=O)O)cc1OCc1ccc(OC(F)(F)F)cc1 [Compound 625]       MET
2  CC(C)(C)c1ccc(CN(C(=O)C(=O)O)c2ccc(-c3ccc(OC(F)(F)F)cc3)c(CCC(=O)O)c2)cc1 [Compound 196]   NOT MET
3  CC(C)(C)c1ccc(COc2c(CCC(=O)O)cccc2-c2ccc(OC(F)(F)F)cc2)cc1 [Compound 88]       MET
4  CC(C)(C)c1ccc(-c2ccc(N(Cc3cccc(OC(F)(F)F)c3)C(=O)C(=O)O)cc2)cc1 [Compound 203]       MET
5  CCCOc1ccc(-c2ccc(OC(F)(F)F)cc2)cc1N(CCCCc1ccccc1)C(=O)C(=O)O [Compound 236]       MET

Could you please find out whether CCCCc1ccc(CN(C(=O)C(=O)O)c2ccc(-c3ccc(OC(F)(F)F)cc3)cc2)cc1 [Compound 167] has inhibition at 10 µM that meets 80% or exceeds it?
NOT MET

---

study-system: recombinant human PAI-1 (Homo sapiens)
assay-method-text: Test Example 2: Human PAI-1 Inhibitory Activity (pH 7.4 HEPES buffer, 10 minutes incubation with two-chain tPA)
Assay type: biochemical
Set-up: purchased Molecular Innovations, Inc
stated-conditions: read-out: Inhibition Rate of PAI-1 Activity (%)
Classification field: enter Yes for inhibition at 0.1 µM values not below 4%, No for values below it.

In [3]: df
Out[3]:
                                   compound  category
0  CC(C)(C)c1cccc(Oc2cc(-c3cccc(OC(F)(F)F)c3)ccc2/C=C/C(=O)O)c1       Yes
1  O=C(O)CCc1ccc(-c2ccc(OC(F)(F)F)cc2)cc1OCCCOCc1ccccc1        No
2  O=C(O)C(=O)N(CCCCc1ccccc1)c1cc(-c2ccc(OC(F)(F)F)cc2)ccc1OC1C2CC3CC(C2)CC1C3 (stereo not shown)       Yes
3  O=C(O)/C=C/c1ccc(-c2ccc(OC(F)(F)F)cc2)cc1OCCCOCc1ccccc1        No
4  CC(C)(C)c1cccc(Oc2cc(-c3cccc(OC(F)(F)F)c3)ccc2CCC(=O)O)c1       Yes

Shift focus to the following entry.
Could you please find out whether CCCCC(Oc1ccc(-c2ccc(OC(F)(F)F)cc2)cc1OCCCCc1ccccc1)C(=O)O (stereo not shown) has inhibition at 0.1 µM that meets 4% or exceeds it?
No
